Reference source for all entries: the supplement of paper PMC7877785

# experiment summary: self-splicing fitness, log relative to wild type (ln ratio); higher = more splicing; Tetrahymena group I intron in knt gene, E. coli kanamycin selection, DiMSum; sequences stand for … in CUCUCU…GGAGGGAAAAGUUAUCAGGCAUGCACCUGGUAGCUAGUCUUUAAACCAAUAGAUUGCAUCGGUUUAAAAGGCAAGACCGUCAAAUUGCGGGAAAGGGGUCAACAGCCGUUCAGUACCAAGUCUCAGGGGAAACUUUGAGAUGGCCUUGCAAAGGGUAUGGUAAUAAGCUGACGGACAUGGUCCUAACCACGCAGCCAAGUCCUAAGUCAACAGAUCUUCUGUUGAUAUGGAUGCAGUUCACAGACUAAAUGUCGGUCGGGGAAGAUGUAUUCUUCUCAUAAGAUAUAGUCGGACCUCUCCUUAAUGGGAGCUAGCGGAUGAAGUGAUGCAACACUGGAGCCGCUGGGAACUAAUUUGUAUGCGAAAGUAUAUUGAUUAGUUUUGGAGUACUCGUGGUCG;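 note: selection with 25 µg/mL kanamycin versus none on LB agar overnight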
# settings: 37 °C
parameter measured: self-splicing fitness (ln)
Quick one: just the number, no unit, thanks!

1) GUAGAGCAAUAUUACGUUGG | -2.04
2) GGGUAGCAAUAUUACGGAAU | -0.661
3) UGCCAGCAAUAUUACGGGCA | -2.48
4) GCCGAGCAAUAUUACGCAUG | -2.4

Problem: Item GUGCAGCAAUAUUACGGUAA : provide self-splicing fitness (ln)
Result: 0.218

Problem: Item AAGAAGCAAUAUUACGUGCC : provide self-splicing fitness (ln)
Result: -1.14

Problem: Item AAGGAGCAAUAUUACGAUGG : provide self-splicing fitness (ln)
Result: -2.11

Problem: Item UUGGAGCAAUAUUACGGGAU : provide self-splicing fitness (ln)
Result: -2.77

Problem: Item GAAGAGCAAUAUUACGUGUC : provide self-splicing fitness (ln)
Result: -2.79
